procedure-details: Antagonist activity at recombinant human GPR55 expressed in HEK293 cells assessed as inhibition of LPI mediated receptor activation by measuring LPI EC50 after 5 mins by xCELLigence assay (Rvb = 1.6 to 4.1 nM)
Provide the reported EC50 of each item.
Expressed in nM, but write only the number.

Consider COc1ccc2c(c1)OC(C)(C)c1cnn(CCN3CCN(C(=O)c4cccs4)CC3)c1-2 . Its measured EC50 is 29

Consider COc1ccc2c(c1)OC(C)(C)c1cn(CNC(=O)CN3CCN(c4cccc(C)c4C)CC3)nc1-2 . Its measured EC50 is 30

Consider COc1ccc2c(c1)OC(C)(C)c1cn(CCN3CCN(C(=O)C4CCCO4)CC3)nc1-2 (stereo not given) . Its measured EC50 is 25

Consider COc1ccc2c(c1)OC(C)(C)c1cnn(CCN3CCN(C(=O)c4ccco4)CC3)c1-2 . Its measured EC50 is 20

Consider COc1ccc2c(c1)OC(C)(C)c1cn(CCN3CCN(C(=O)c4ccccc4)CC3)nc1-2 . Its measured EC50 is 16
